Assay: Hydrolytic stability: time dependent degree of hydrolysis of the 19F fluorosilane to the hydroxy compound at physiological pH (7.0)
Format: physicochemical
Details: ratio of hydrolytic halflife to radioactive halflife of the 18-F isotope (1.83 hours)
This listing pairs compounds with measured rel. stability.
Answer with the value's number alone.

Worked set:
compound: CC(C)C[Si](F)(CC(C)C)c1ccc(C(=O)O)cc1 [Compound 5g - F]
obsValue: 1.9

compound: CC(C)[Si](F)(c1ccc(C(=O)O)cc1)C(C)C [Compound 5a - F]
obsValue: 6.1

compound: CC(C)C[Si](F)(CCCCC(=O)Nc1ccccc1)CC(C)C [Compound 30a - 1F]
obsValue: 7.5

Data request: For the compound CC(C)C[Si](F)(CC(C)C)c1ccc(COC2CCCCO2)cc1 (racemic) [Compound 3g - F] , report rel. stability.
Data returned: 4.5

###

Experiment: Hydrolytic stability: time dependent degree of hydrolysis of the 19F fluorosilane to the hydroxy compound at physiological pH (7.0)
Assay type: physicochemical
Settings: ratio of hydrolytic halflife to radioactive halflife of the 18-F isotope (1.83 hours)
This listing pairs molecules with measured rel. stability.
Answer with the value's number alone.

Worked set:
molecule: CC(C)[Si](F)(c1ccc(COC2CCCCO2)cc1)C(C)C (racemic) [Compound 3a - F]
rel. stability: 27.0
--
molecule: F[Si](c1ccccc1)(c1ccccc1)c1ccc(CCOC2CCCCO2)cc1 (racemic) [Compound 3f - F]
rel. stability: 0.04

Now consider a different molecule.
Data request: For the molecule CC(C)C[Si](F)(CC(C)C)c1ccc(CC(=O)O)cc1 [Compound 5h - F] , report rel. stability.
Data returned: 4.8
